system: clinical Escherichia coli YT1-30; assay: Minimum inhibitory concentration (MIC), NCCLS method, 30 clinical strains; format: cell-based; set-up: unit not given here; conditions: strain YT15
Counter-ions that a name gives are not always drawn.
Endpoint Label: Minimum inhibitory concentration (MIC)
Give a plain numeric answer without units written out.

Examples from the recorded data:
| Compound | Minimum inhibitory concentration (MIC) |
| --- | --- |
| CNC1CCCN(c2c(F)cc3c(=O)c(C(=O)O)cn(C4CC4)c3c2OC)C1 (stereo not shown) [Balofloxacin] | 15.625 |
| CN(C)[C@@H]1C(O)=C(C(N)=O)C(=O)[C@@]2(O)C(O)=C3C(=O)c4c(O)cccc4[C@@](C)(O)[C@H]3C[C@@H]12 [Tetracycline] | 6250 |
| CC(C)(O/N=C(\C(=O)N[C@@H]1C(=O)N2C(C(=O)[O-])=C(C[n+]3ccccc3)CS[C@H]12)c1csc(N)n1)C(=O)O [Ceftazidime] | 0.488 |
| NCC[C@H](O)C(=O)N[C@@H]1C[C@H](N)[C@@H](O[C@H]2O[C@H](CN)[C@@H](O)[C@H](O)[C@H]2O)[C@H](O)[C@H]1O[C@H]1O[C@H](CO)[C@@H](O)[C@H](N)[C@H]1O [Amikacin] | 2500 |

Data request: Could you share which Minimum inhibitory concentration (MIC) value was measured for CC1(C)S[C@@H]2[C@H](NC(=O)[C@H](N)c3ccccc3)C(=O)N2[C@H]1C(=O)O [Ampicillin] ?
Data returned: 6250

Data request: // Minimum inhibitory concentration (MIC) lookup, key: CC[C@H]1OC(=O)[C@H](C)[C@@H](O[C@H]2C[C@@](C)(OC)[C@@H](O)[C@H](C)O2)[C@H](C)[C@@H](O[C@@H]2O[C@H](C)C[C@H](N(C)C)[C@H]2O)[C@](C)(O)C[C@@H](C)/C(=N\OCOCCOC)[C@H](C)[C@@H](O)[C@]1(C)O [Roxithromycin]
Data returned: 2500

Data request: Request the reported Minimum inhibitory concentration (MIC) associated with CCC[C@@H]1C[C@@H](C(=O)N[C@@H]([C@H]2O[C@H](SC)[C@H](O)[C@@H](O)[C@H]2O)[C@H](C)Cl)N(C)C1 [Clindamycin hydrochloride]
Data returned: 25000

----------
This listing pairs compounds with measured Minimum inhibitory concentration (MIC).
System: clinical Escherichia coli YT1-30
Test: Minimum inhibitory concentration (MIC), NCCLS method, 30 clinical strains
Type: cell-based
Parameters: unit not given here
Settings: strain YT27
Excerpt: Escherichia coli (E. coli) are one of the most common bacteria in the clinic. 30 strains of E. coli obtained from the clinic were named YT1-30. The minimum inhibitory concentrations (MIC) of 8 antibiotics against these 30 clinically obtained E. coli was detected according to the NCCLS method, and E. coli K12 was used as a control.
Where a name gives a salt, the structure may show the parent alone.

Example compounds with recorded Minimum inhibitory concentration (MIC):
| Compound | Minimum inhibitory concentration (MIC) |
| --- | --- |
| CC[C@H]1OC(=O)[C@H](C)[C@@H](O[C@H]2C[C@@](C)(OC)[C@@H](O)[C@H](C)O2)[C@H](C)[C@@H](O[C@@H]2O[C@H](C)C[C@H](N(C)C)[C@H]2O)[C@](C)(O)C[C@@H](C)/C(=N\OCOCCOC)[C@H](C)[C@@H](O)[C@]1(C)O | 625 |
| CCC[C@@H]1C[C@@H](C(=O)N[C@@H]([C@H]2O[C@H](SC)[C@H](O)[C@@H](O)[C@H]2O)[C@H](C)Cl)N(C)C1 [Clindamycin hydrochloride] | 390.625 |

Data request: Please provide the recorded Minimum inhibitory concentration (MIC) for `NCC[C@H](O)C(=O)N[C@@H]1C[C@H](N)[C@@H](O[C@H]2O[C@H](CN)[C@@H](O)[C@H](O)[C@H]2O)[C@H](O)[C@H]1O[C@H]1O[C@H](CO)[C@@H](O)[C@H](N)[C@H]1O` , tested on clinical Escherichia coli YT1-30.
Data returned: 9.765

Data request: Recall the recorded Minimum inhibitory concentration (MIC) for `CC1(C)S[C@@H]2[C@H](NC(=O)[C@H](N)c3ccccc3)C(=O)N2[C@H]1C(=O)O` with clinical Escherichia coli YT1-30 and state it.
Data returned: 6250

Data request: Form: Entry = `CC(C)(O/N=C(\C(=O)N[C@@H]1C(=O)N2C(C(=O)[O-])=C(C[n+]3ccccc3)CS[C@H]12)c1csc(N)n1)C(=O)O` | System = clinical Escherichia coli YT1-30 | Minimum inhibitory concentration (MIC) = ____
Data returned: 0.488

Data request: Please provide the recorded Minimum inhibitory concentration (MIC) for `CN(C)[C@@H]1C(O)=C(C(N)=O)C(=O)[C@@]2(O)C(O)=C3C(=O)c4c(O)cccc4[C@@](C)(O)[C@H]3C[C@@H]12` , tested on clinical Escherichia coli YT1-30.
Data returned: 97.656

Data request: What measured Minimum inhibitory concentration (MIC) is associated with CNC1CCCN(c2c(F)cc3c(=O)c(C(=O)O)cn(C4CC4)c3c2OC)C1 (stereo not shown) on clinical Escherichia coli YT1-30?
Data returned: 15.625

----------
Quick reference for Minimum inhibitory concentration (MIC) among some compounds
tested on: clinical Escherichia coli YT1-30; experiment: Minimum inhibitory concentration (MIC), NCCLS method, 30 clinical strains; assay type: cell-based; design: unit not given here; conditions: strain YT9
Where a name gives a salt, the structure may show the parent alone.
Write the number on its own, no unit after it.

Recorded results for 6 compounds are shown here.
| Compound | System Under Test | Minimum inhibitory concentration (MIC) |
| --- | --- | --- |
| CNC1CCCN(c2c(F)cc3c(=O)c(C(=O)O)cn(C4CC4)c3c2OC)C1 (stereo not shown) [Balofloxacin] | clinical Escherichia coli YT1-30 | 250 |
| NCC[C@H](O)C(=O)N[C@@H]1C[C@H](N)[C@@H](O[C@H]2O[C@H](CN)[C@@H](O)[C@H](O)[C@H]2O)[C@H](O)[C@H]1O[C@H]1O[C@H](CO)[C@@H](O)[C@H](N)[C@H]1O [Amikacin] | clinical Escherichia coli YT1-30 | 2.441 |
| CN(C)[C@@H]1C(O)=C(C(N)=O)C(=O)[C@@]2(O)C(O)=C3C(=O)c4c(O)cccc4[C@@](C)(O)[C@H]3C[C@@H]12 [Tetracycline] | clinical Escherichia coli YT1-30 | 97.656 |
| CCC[C@@H]1C[C@@H](C(=O)N[C@@H]([C@H]2O[C@H](SC)[C@H](O)[C@@H](O)[C@H]2O)[C@H](C)Cl)N(C)C1 [Clindamycin hydrochloride] | clinical Escherichia coli YT1-30 | 1562.5 |
| CC(C)(O/N=C(\C(=O)N[C@@H]1C(=O)N2C(C(=O)[O-])=C(C[n+]3ccccc3)CS[C@H]12)c1csc(N)n1)C(=O)O [Ceftazidime] | clinical Escherichia coli YT1-30 | 0.488 |
| CC[C@H]1OC(=O)[C@H](C)[C@@H](O[C@H]2C[C@@](C)(OC)[C@@H](O)[C@H](C)O2)[C@H](C)[C@@H](O[C@@H]2O[C@H](C)C[C@H](N(C)C)[C@H]2O)[C@](C)(O)C[C@@H](C)/C(=N\OCOCCOC)[C@H](C)[C@@H](O)[C@]1(C)O [Roxithromycin] | clinical Escherichia coli YT1-30 | 625 |

Next:
Data request: Could you share what Minimum inhibitory concentration (MIC) was measured for CC1(C)S[C@@H]2[C@H](NC(=O)[C@H](N)c3ccccc3)C(=O)N2[C@H]1C(=O)O [Ampicillin] , tested on clinical Escherichia coli YT1-30?
Data returned: 1562.5

----------
tested on: clinical Escherichia coli YT1-30; test: Minimum inhibitory concentration (MIC), NCCLS method, 30 clinical strains; assay type: cell-based; set-up: unit not given here; conditions: strain YT22
Use 400 as the dividing line for Minimum inhibitory concentration (MIC), with the line itself on the yes (1) side and lower values as no (0).

The following compounds have reported results that may help.
| Compound | Discrete Label |
| --- | --- |
| CC[C@H]1OC(=O)[C@H](C)[C@@H](O[C@H]2C[C@@](C)(OC)[C@@H](O)[C@H](C)O2)[C@H](C)[C@@H](O[C@@H]2O[C@H](C)C[C@H](N(C)C)[C@H]2O)[C@](C)(O)C[C@@H](C)/C(=N\OCOCCOC)[C@H](C)[C@@H](O)[C@]1(C)O | yes (1) |
| NCC[C@H](O)C(=O)N[C@@H]1C[C@H](N)[C@@H](O[C@H]2O[C@H](CN)[C@@H](O)[C@H](O)[C@H]2O)[C@H](O)[C@H]1O[C@H]1O[C@H](CO)[C@@H](O)[C@H](N)[C@H]1O | yes (1) |
| CN(C)[C@@H]1C(O)=C(C(N)=O)C(=O)[C@@]2(O)C(O)=C3C(=O)c4c(O)cccc4[C@@](C)(O)[C@H]3C[C@@H]12 | yes (1) |
| CC(C)(O/N=C(\C(=O)N[C@@H]1C(=O)N2C(C(=O)[O-])=C(C[n+]3ccccc3)CS[C@H]12)c1csc(N)n1)C(=O)O | no (0) |

Data request: Please tell me: is the compound `CC1(C)S[C@@H]2[C@H](NC(=O)[C@H](N)c3ccccc3)C(=O)N2[C@H]1C(=O)O` at or over 400 in terms of Minimum inhibitory concentration (MIC)?
Data returned: yes (1)

Data request: Would you say CNC1CCCN(c2c(F)cc3c(=O)c(C(=O)O)cn(C4CC4)c3c2OC)C1 (stereo not shown) shows Minimum inhibitory concentration (MIC) at minimum 400?
Data returned: no (0)

FYI, the data here is from patent US11752120B2.
